B1: library; numbered along this chain (parent)
chain: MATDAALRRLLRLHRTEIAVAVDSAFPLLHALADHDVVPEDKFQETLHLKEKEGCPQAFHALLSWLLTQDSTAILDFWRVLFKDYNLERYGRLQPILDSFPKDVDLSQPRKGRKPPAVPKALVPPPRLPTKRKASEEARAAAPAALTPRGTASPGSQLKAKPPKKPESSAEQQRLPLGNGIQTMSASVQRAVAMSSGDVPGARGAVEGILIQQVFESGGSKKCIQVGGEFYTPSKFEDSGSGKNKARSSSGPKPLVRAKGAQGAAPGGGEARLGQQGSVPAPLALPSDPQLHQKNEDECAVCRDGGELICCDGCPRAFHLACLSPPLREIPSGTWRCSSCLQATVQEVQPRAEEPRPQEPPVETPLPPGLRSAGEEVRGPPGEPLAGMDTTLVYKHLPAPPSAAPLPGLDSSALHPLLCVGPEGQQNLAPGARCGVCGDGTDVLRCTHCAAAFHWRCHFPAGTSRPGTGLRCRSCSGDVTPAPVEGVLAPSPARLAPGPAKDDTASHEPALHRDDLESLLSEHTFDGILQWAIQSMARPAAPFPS

Variants of: B1
Experiment: AIRE transcriptional activation functional score (insulin promoter-GFP; nonsense median 0, synonymous median 1) (normalised score); higher = higher AIRE activity (more reporter activation)
Details: with insulin promoter-GFP reporter in HEK293
endpoint.name: AIRE transcriptional activation functional score

- V443P: 1.15
- R513Y: 1.28
- A58W: 0.0998
- I74Q: 0.136
- C55G: -0.175
- Q346S: 1.06
- A403G: 1.26
- Q530L: -0.018
- I96A: -0.165
- E354N: 0.818
- W335L: 0.997
- Q225I: 0.248
- W65K: 0.535
- P119G: 0.741
- P401K: 1.55
- C223S: 0.477
- G180S: 0.929
- Q108P: 0.669
- S195Y: 0.427
- S135K: 1.43
- V479C: 1.15
- S278I: 1.04
- A452C: 1.13
- L519Y: 1.11
- I96T: -1.01
- G469E: 0.672
- A317K: 0.241
- L62T: -0.152
- A31F: -0.218
- G228P: 0.904
- K111G: 0.901
- R12L: 0.419
- P116D: 0.468
- E485T: 1.02
- P398G: 1.14
- Q293L: 1.08
- R433F: 0.678
- D4C: 0.509
- G197V: 1.14
- L63M: -0.458
- S506Y: 1.42
- A202F: 0.397
- S24F: 0.0274
- K165V: 0.921
- S168C: 1
- D502P: 0.765
- K294E: 0.357
- G424A: 1.25
- S411C: 1.45
- K42D: -1.69
- D515L: -0.215
- K133Y: -0.0322
- L283I: 0.854
- L75H: 0.935
- H292G: 1.12
- D70E: 0.94
- S156E: 0.377
- L146N: 0.353
- L146Q: 1.05
- D439T: 1.03
- G333Q: 0.597
- C314Y: 0.725
- A152F: 1.55
- P124K: 0.627
- V214P: 0.238
- P401H: 1.01
- A186L: 0.0294
- V123S: 0.751
- G180P: -1.38
- P492D: -0.0101
- E53N: 0.151
- R15L: 0.37
- A451V: 0.438
- F453S: 0.166
- L49I: -0.275
- C457L: -0.0524
- S99G: 0.382
- S249D: 0.114
- L495A: 1.42
- A6M: 0.372
- S278N: 0.723
- K294L: 0.857
- A117W: 1.4
- L28P: 0.00884
- A141G: 1.28

src = the supplement of paper PMC12667976
